# assay_summary: Compound was evaluated for area under the curve expressed as (h*ug/ml)
# Type: ADME
# measurement_conditions: human
endpoint_name: AUC (ng·h/mL)
One number for each entry, in ng·h/mL.

Query: Fill blank: measured AUC of the compound Cc1cc2c(cc1CC(=O)c1sccc1S(=O)(=O)Nc1onc(C)c1Cl)OCO2 [SITAXENTAN] is ____.
Reply: 33000

---

# assay_summary: Half life period was evaluated in human
# Assay type: ADME
endpoint_name: half-life (h)
Answers are plain numbers, in h.

Query: Find the recorded half-life belonging to `Cc1cc2c(cc1CC(=O)c1sccc1S(=O)(=O)Nc1onc(C)c1Cl)OCO2` and report it.
Reply: 6.46

---

# assay_summary: Half life period was evaluated in rat
# measurement_conditions: in vivo
endpoint_name: half-life (min)
One number for each entry, in min.

Query: State the recorded half-life for this entry: `COc1ccccc1Oc1c(NS(=O)(=O)c2ccc(C(C)C)cn2)nc(-c2ccnc(-c3nnn[nH]3)c2)nc1OCCO`
Reply: 7.8

---

Please go through the items and note down their bioavailability.
# assay_summary: Compound was evaluated for oral bioavailability in rats
# measurement_conditions: rat, in vivo
Answers are plain numbers, in %.

The cases that follow already have their bioavailability on record.
• Cc1cc(C)c(NC(=O)c2sccc2S(=O)(=O)Nc2onc(C)c2Cl)c(C(=O)CS(C)(=O)=O)c1 = 16
• CCCCN(CCCC)C(=O)CN1C[C@H](c2ccc3c(c2)OCO3)[C@@H](C(=O)O)[C@@H]1c1ccc(OC)cc1 = 60
• CC(=O)c1cc(C)cc(C)c1NC(=O)c1sc(C)cc1S(=O)(=O)Nc1onc(C)c1Cl = 49

// below: bioavailability requested for another compound
Query: Any idea what bioavailability was measured for `CCCCc1ccc2c(n1)[C@@H](c1ccc(OC)cc1C[C@H](C)C(=O)O)[C@H](C(=O)O)[C@H]2c1ccc2c(c1)OCO2` ?
Reply: 40

---

# assay_summary: Cmax in rat plasma after oral dose (50 mg/Kg)
# Assay type: ADME, organism-based
# Parameters: dose 50 mg/Kg, route oral
Classify: yes (1) when Cmax is strictly less than 50000 ng/mL; no (0) when Cmax is not.

Worked cases, answers included:
* CC(=O)c1cc(C)cc(C)c1NC(=O)c1sc(C)cc1S(=O)(=O)Nc1onc(C)c1Cl | no (0)
* Cc1cc(C)c(S(N)(=O)=O)c(C)c1NC(=O)c1sccc1S(=O)(=O)Nc1onc(C)c1Cl | yes (1)
* Cc1cc(C)c(NC(=O)c2sccc2S(=O)(=O)Nc2onc(C)c2Cl)c(C(=O)CS(C)(=O)=O)c1 | yes (1)
* CC(=O)c1cc(C)cc(C)c1NC(=O)c1sccc1S(=O)(=O)Nc1onc(C)c1C | no (0)
* Cc1cc(C)c(NC(=O)c2sccc2S(=O)(=O)Nc2onc(C)c2C)c(C#N)c1C | no (0)

Query: Bench note: check whether `Cc1cc(C)c(OC2CC2)c(C)c1NC(=O)c1sccc1S(=O)(=O)Nc1onc(C)c1Cl` shows Cmax below 50000 ng/mL
Reply: yes (1)

Query: I'd appreciate it if you could check whether `COc1c(C)cc(C)c(NC(=O)c2sccc2S(=O)(=O)Nc2onc(C)c2Cl)c1C` has Cmax smaller than 50000 ng/mL.
Reply: yes (1)

Query: Does the reported Cmax of the following compound sit strictly below 50000 ng/mL? `Cc1cc(C)c(NC(=O)c2sccc2S(=O)(=O)Nc2onc(C)c2Cl)c(Cl)c1`
Reply: yes (1)

Query: State whether 50000 ng/mL exceeds Cmax recorded for `Cc1cc(C)c(NC(=O)c2sccc2S(=O)(=O)Nc2onc(C)c2Cl)c(C(=O)c2ccccc2)c1` .
Reply: yes (1)

Query: Please check: Cmax for `Cc1cc(C)c(NC(=O)c2sccc2S(=O)(=O)Nc2onc(C)c2Cl)c(C#N)c1C` , strictly under 50000 ng/mL or not?
Reply: yes (1)

Query: Here's an entry: `Cc1cc(C)c(NC(=O)c2sccc2S(=O)(=O)Nc2onc(C)c2Cl)c(C(=O)C(C)C)c1` . Is its Cmax below 50000 ng/mL?
Reply: no (0)

These measurements were taken from ChEMBL document CHEMBL1148449.
